Source of measurements: PubChem BioAssay AID1645855

- System: Ubiquitin carboxyl-terminal hydrolase 17-like protein 5 (Homo sapiens) (UniProt A8MUK1)
- Sequence (A8MUK1 whole entry, looked up): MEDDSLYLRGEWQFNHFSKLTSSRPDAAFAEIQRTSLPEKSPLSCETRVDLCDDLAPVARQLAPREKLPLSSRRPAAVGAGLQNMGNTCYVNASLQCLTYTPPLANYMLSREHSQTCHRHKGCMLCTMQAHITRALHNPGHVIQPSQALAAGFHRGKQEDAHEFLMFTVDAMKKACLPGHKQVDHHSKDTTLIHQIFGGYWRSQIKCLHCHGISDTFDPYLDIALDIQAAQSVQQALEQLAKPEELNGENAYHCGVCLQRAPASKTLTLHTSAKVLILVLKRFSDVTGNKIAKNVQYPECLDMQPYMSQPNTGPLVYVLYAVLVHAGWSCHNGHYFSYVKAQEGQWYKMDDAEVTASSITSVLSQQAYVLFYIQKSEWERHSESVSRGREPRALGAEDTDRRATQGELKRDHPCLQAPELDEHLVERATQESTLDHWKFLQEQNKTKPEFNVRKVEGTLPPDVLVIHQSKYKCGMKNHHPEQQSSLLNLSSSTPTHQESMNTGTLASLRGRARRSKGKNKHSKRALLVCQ
- Assay explanation: inhibitors of human USP17 deubiquitinase (AID 1645855)
- Condition summary: purified USP17, Ub-rhodamine cleavage fluorescence, 3 h; at 50 µM
Out of some 47,000 compounds screened, about 3,100 (6.6%) were called active. No stated cut-off is given here; in the data, active means inhibition above about 30%; inactive means the rest. Shown is part of a subset that was picked to be rich in actives.
Hi there, use one of these labels in your reply, thanks! YES for active, NO for inactive

Lookup: Lab log entry: CN1C[C@H]2N(c3ncccn3)CCC[C@@]2(C(=O)NCC2CC2)C1 — outcome as called in the assay?
Found: NO

Lookup: And for O=C1CSC(c2ccc(F)cc2)c2c(-c3ccccc3)nn(-c3ccccc3)c2N1 (centres undefined) ?
Found: NO

Lookup: And for COc1cc([C@@H]2c3cc4c(cc3C[C@@H]3COC(=O)[C@H]32)OCO4)cc(OC)c1OC ?
Found: YES

Lookup: And for c1ccc(C2NCc3ccccc3-n3cccc32)cc1 (centres undefined) ?
Found: NO
